system under test: RXRα LBD (Homo sapiens)
Construct: peptide to the RXRα LBD (aa 225–462) was studied
Sequence (P19793 225-462): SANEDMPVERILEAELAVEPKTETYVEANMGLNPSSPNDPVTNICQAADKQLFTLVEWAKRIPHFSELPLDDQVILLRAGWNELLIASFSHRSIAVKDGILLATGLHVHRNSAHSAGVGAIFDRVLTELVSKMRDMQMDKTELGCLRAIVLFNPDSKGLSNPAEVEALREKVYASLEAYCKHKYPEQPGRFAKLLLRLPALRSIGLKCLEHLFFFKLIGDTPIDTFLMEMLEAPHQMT
experiment description: HTRF-based SRC-1 co-activator recruitment assay
Assay type: biochemical
assay setup: EC50 SRC-1 recruitment to RXRα in the presence of 0.3 µM bexarotene, HTRF, in the presence of 0.3 µM bexarotene
observable: pEC50
Numbers only, as −log10 of the molar value.

Task item: # get_value(readout='pEC50', item= CCCCCCCCCCCCCC(=O)O [MA, myristic acid] )
Reply: 5.54
